Cited source for all entries: the supplement of paper PMC11865577

Test system: TO-N3-2 (biotin conjugate)
Assay: pull-down binding Z-score (relative to library population); higher = stronger binding
Conditions: RNA library: Library-2
Known pull-down binding Z-score of a selection of sequences

Example sequences with recorded pull-down binding Z-score:
{"SEQUENCE": "AGCGCGGCGACCGUAACUCCU [hsa-mir-1237]", "VALUE_REPORTED": 1.65}
{"SEQUENCE": "GAGUGAGGCCCAGUGGUCACCGCCGCCCUC [hsa-mir-4754]", "VALUE_REPORTED": 1.73}

Kindly review the next sequence as well.
-- ask Would you mind telling me what pull-down binding Z-score value was observed for AUAGAACAUUGACAUCAACACUAG [hsa-mir-4278] ?
-- reply -0.508
